procedure-details: Displacement of [3H](+)-MK-801 from N-methyl D-aspartate receptor in Rattus norvegicus (rat) forebrain membranes after 90 min
Parameters: species or system Membrane
Please respond with reported log10 of IC50 for every item in the list.
Please interpret these as log10 of IC50 where IC50 is in µM.

Example molecules with recorded log10 of IC50:
NC1C2C3CC4C5CC(C1C53)C42 (stereo not given) | 1.95
NC1C2C3CC4C2C2C1C3C42 (stereo not given) | 2.18
CC12CC3CC(C)(C1)CC(N)(C3)C2 [MEMANTINE] | 0.19
NC12C3C4C5C3C1C5C42 (stereo not given) | 2.41

Ask: # query: log10 of IC50 of entry NC1C2C3C4C1C1C2C3C41 (stereo not given)
Reply: 2.93

Attribution: ChEMBL document CHEMBL3045367
